// data source = paper PMC5698704

# System name: CDK5/p35(h) (Homo sapiens, UniProt Q00535)
# Sequence (Q00535 whole entry): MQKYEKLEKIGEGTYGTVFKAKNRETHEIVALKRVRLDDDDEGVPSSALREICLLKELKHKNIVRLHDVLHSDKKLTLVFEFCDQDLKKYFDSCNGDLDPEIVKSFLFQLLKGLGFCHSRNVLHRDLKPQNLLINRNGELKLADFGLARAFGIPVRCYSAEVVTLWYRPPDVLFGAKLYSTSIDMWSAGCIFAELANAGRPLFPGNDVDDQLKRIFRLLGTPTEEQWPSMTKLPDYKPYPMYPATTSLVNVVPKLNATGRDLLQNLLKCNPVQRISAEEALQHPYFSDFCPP
# Sequence (Q15078 whole entry partner): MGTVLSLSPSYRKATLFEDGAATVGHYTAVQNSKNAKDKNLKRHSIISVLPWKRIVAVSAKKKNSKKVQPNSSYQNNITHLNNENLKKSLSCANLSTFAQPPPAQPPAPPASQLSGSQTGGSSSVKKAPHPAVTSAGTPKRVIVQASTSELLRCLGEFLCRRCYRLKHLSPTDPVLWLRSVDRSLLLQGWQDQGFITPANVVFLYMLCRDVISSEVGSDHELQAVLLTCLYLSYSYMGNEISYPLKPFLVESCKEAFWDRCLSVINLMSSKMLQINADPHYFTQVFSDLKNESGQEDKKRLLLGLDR
# Assay notes: Merck Millipore KinaseProfiler
# Assay type: biochemical
# Reported conditions: Millipore panel, 10 µM ATP
Observation type: pIC50
Numbers only, as −log10 of the molar value.

Note pIC50 for the compound shown: COc1cc(F)ccc1-c1ncnc(Nc2cccc(CS(N)(=O)=O)c2)n1 [BAY‐958]
6.10

* * *

# Assay notes: Metabolic stability in human liver microsomes
# Assay type: in vitro ADME
Observation type: recovery at 60 min (%)
Give bare numbers, in %.

Note recovery at 60 min for the molecule shown: NS(=O)(=O)Cc1cccc(Nc2ncnc(-c3ccc(F)cc3OCc3ccccc3)n2)c1 [Compound 23]
0

* * *

I'd appreciate it if you could supply Selectivity vs. CDK2, ratio of IC50 values values for the items below.
# Test system: CDK2/CycE
# Assay notes: CDK2/CycE kinase assay
# Type: biochemical, human
# Reported conditions: ratio of IC50 values CDK2/CDK9, in-house assays
Numbers only.

Worked cases, Selectivity vs. CDK2, ratio of IC50 values given:
COc1cnccc1-c1ncnc(Nc2cccc(CS(N)(=O)=O)c2)n1 : 14
COc1cc(F)ccc1-c1ncnc(Nc2cccc(C(C)S(C)(=O)=O)c2)n1 (racemic) : 21
NS(=O)(=O)Cc1cccc(Nc2ncnc(-c3ccc(F)cc3F)n2)c1 : 16
COc1ccccc1-c1ncnc(Nc2cccc(CS(N)(=O)=O)c2)n1 : 62
COc1cc(F)ccc1-c1ncnc(Nc2ccc3c(c2)S(=O)(=O)CC3)n1 : 22

For the 7 molecules below, give their Selectivity vs. CDK2, ratio of IC50 values values.
1. COc1cc(F)ccc1-c1ncnc(Nc2cccc(S(C)(=O)=O)c2)n1
2. COc1cc(F)ccc1-c1ncnc(Nc2cccc(C(F)(F)S(C)(=O)=O)c2)n1
3. COc1cc(F)ccc1-c1ncnc(Nc2cccc(CS(=O)(=O)C(C)(C)C)c2)n1
4. NS(=O)(=O)Cc1cccc(Nc2ncnc(-c3ccc(F)cc3C(F)(F)F)n2)c1
5. COc1cc(Cl)ccc1-c1ncnc(Nc2cccc(CS(N)(=O)=O)c2)n1
6. NS(=O)(=O)Cc1cccc(Nc2ncnc(-c3ccc(F)cc3OCc3ccccc3)n2)c1
7. COc1cc(F)ccc1-c1ncnc(Nc2cccc(CS(N)(=O)=O)c2)n1

19
19
43
1
108
34
98

For the 4 molecules below, give their Selectivity vs. CDK2, ratio of IC50 values values.
1. NS(=O)(=O)Cc1cccc(Nc2ncnc(-c3ccc(F)cc3O)n2)c1
2. COc1cc(F)ccc1-c1ncnc(Nc2cccc(CCS(C)(=O)=O)c2)n1
3. NS(=O)(=O)Cc1cccc(Nc2ncnc(-c3ccccc3OC(F)(F)F)n2)c1
4. COc1cc(F)ccc1-c1ncnc(Nc2cccc(C(F)S(C)(=O)=O)c2)n1 (racemic)

6
12
20
13

* * *

# System name: CDK7/cyclinH/MAT1(h) (Homo sapiens, UniProt P50613)
# Sequence (P50613 whole entry): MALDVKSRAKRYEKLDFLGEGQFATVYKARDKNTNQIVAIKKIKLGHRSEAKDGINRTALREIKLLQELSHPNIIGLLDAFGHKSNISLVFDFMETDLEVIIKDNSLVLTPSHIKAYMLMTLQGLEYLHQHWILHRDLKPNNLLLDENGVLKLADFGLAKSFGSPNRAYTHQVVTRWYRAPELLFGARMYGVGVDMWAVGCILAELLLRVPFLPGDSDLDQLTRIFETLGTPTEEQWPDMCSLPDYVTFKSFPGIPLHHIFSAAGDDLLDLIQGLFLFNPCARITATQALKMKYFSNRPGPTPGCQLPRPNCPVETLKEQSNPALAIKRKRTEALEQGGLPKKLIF
# Sequence (P51946 whole entry partner): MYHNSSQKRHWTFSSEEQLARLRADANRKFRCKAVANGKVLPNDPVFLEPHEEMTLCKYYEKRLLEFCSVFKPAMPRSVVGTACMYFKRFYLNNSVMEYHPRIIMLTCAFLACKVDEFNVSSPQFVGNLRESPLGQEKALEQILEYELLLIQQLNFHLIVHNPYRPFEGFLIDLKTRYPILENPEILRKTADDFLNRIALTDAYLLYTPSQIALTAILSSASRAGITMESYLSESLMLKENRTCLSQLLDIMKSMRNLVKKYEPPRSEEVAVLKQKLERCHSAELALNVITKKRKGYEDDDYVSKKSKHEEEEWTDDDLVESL
# Sequence (P51948 whole entry partner): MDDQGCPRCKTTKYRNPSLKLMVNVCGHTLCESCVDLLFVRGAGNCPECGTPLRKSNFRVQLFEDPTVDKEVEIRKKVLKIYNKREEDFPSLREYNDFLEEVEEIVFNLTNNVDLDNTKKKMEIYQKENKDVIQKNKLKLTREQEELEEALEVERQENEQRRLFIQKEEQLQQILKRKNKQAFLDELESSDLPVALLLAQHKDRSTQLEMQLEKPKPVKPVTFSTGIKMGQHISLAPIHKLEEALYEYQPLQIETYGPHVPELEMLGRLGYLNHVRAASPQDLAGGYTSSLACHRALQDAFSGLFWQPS
# Assay notes: Merck Millipore KinaseProfiler
Observation type: IC50

Note IC50 for the compound shown: COc1cc(F)ccc1-c1ncnc(Nc2cccc(CS(N)(=O)=O)c2)n1
> 10 µM

* * *

# Assay notes: Caco‐2 permeability assay
# Assay type: in vitro ADME
# Reported conditions: human, Caco-2, pH 7.2
Observation type: efflux ratio at 2 h, 2 μM

Note efflux ratio at 2 h, 2 μM for the compound shown: COc1cc(F)ccc1-c1ncnc(Nc2cccc(CS(N)(=O)=O)c2)n1 [BAY‐958]
15

* * *

# Tested on: CDK2/CycE
# Assay notes: CDK2/CycE kinase assay
# Assay type: biochemical, human
# Reported conditions: ratio of IC50 values CDK2/CDK9, in-house assays
Observation type: Selectivity vs. CDK2, ratio of IC50 values

Worked cases, Selectivity vs. CDK2, ratio of IC50 values given:
COc1cc(F)ccc1-c1ncnc(Nc2ccc3c(c2)CS(=O)(=O)C3)n1 : <1
COCc1ccccc1-c1ncnc(Nc2cccc(CS(N)(=O)=O)c2)n1 : >11
COc1cc(F)ccc1-c1ncnc(Nc2cccc(C(C)(C)S(C)(=O)=O)c2)n1 : >20

Note Selectivity vs. CDK2, ratio of IC50 values for the compound shown: CC(=O)Nc1cc(F)ccc1-c1ncnc(Nc2cccc(CS(N)(=O)=O)c2)n1
<1
